tested on: HEK293 cells; assay: Preliminary screening as mRNA vectors, EGFP mRNA transfection of HEK293 cells; type: cell-based; settings: EGFP mRNA 50 ng per well, 96-well plates; percentage of GFP fluorescent cells relative to total number of cells (Hoechst)
reported property: Absolute mRNA transfection efficiency in HEK293 cells (%)
One number for each entry, in %.

[[record]]
record_smiles = "CCCCCCCCCCCCCCCNc1nc(NCCN(C)C)nc(SCCCCCCCCCCCC)n1"
value_reported = 0.5

[[record]]
record_smiles = "CCCCCCCCCCCCSc1nc(NCCCCCCC)nc(NCCN2CCOCC2)n1"
value_reported = 0.4

[[record]]
record_smiles = "CCCCCCCSc1nc(NCC2CCN(C)CC2)nc(SCCCCCCC)n1"
value_reported = 19.3

[[record]]
record_smiles = "CCCCCCCCCCCCNc1nc(NCCN(C)C)nc(SCCCCCCCCC)n1"
value_reported = 30.2


Now examine the next entry.
In: Absolute mRNA transfection efficiency in HEK293 cells for CCCCCCCCCCCCCCCCCCNc1nc(NCCCN2CCN(C)CC2)nc(SCCCCCCCC)n1 ?
Out: 29.4
